Data origin, for the record: ChEMBL document CHEMBL3407461

Target: CYP2C19 (Homo sapiens)
Sequence (P33261 whole entry): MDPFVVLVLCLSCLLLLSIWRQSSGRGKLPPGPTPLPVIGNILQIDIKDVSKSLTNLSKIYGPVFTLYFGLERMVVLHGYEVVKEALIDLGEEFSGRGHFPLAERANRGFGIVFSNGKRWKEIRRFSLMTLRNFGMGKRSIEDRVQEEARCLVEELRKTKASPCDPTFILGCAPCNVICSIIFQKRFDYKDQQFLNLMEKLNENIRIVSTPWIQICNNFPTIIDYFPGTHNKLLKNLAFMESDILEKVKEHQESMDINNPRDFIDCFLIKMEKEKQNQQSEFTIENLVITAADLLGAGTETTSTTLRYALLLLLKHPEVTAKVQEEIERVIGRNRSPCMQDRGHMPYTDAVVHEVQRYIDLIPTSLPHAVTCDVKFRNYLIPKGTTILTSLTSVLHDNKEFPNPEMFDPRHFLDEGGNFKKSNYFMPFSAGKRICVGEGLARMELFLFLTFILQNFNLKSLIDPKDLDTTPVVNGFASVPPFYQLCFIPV
Experiment: Inhibition of CYP2C19 in human microsomes preincubated at 10 uM for 5 mins before substrate addition measured after 10 mins by LC/MS/MS analysis
Type: ADME
Result type: inhibition at 10 min, 10 µM (%)

> print(dat)
                                smiles.data                  result.type  number
1  CNC(=O)[C@@]12C[C@@H]1[C@@H](n1cnc3c(NC)nc(C#Cc4ccc(Br)s4)nc31)[C@H](O)[C@@H]2O  inhibition at 10 min, 10 µM      34

###

Biological target: Adenosine receptor A2a (Homo sapiens)
Test: Displacement of [3H]CGS21680 from human recombinant A2A adenosine receptor expressed in HEK293 cells at 10 uM after 60 mins by liquid scintillation counting
Assay type: cell-based
Result type: inhibition

> print(dat)
                                smiles.data  result.type  result
1  CNC(=O)[C@@]12C[C@@H]1[C@@H](n1cnc3c(NC)nc(C#CC4CCCCC4)nc31)[C@H](O)[C@@H]2O   inhibition     45%
2  CNC(=O)[C@@]12C[C@@H]1[C@@H](n1cnc3c(NC)nc(C#Cc4nccs4)nc31)[C@H](O)[C@@H]2O   inhibition      8%
3  CNC(=O)[C@@]12C[C@@H]1[C@@H](n1cnc3c(NC)nc(C#Cc4ncccn4)nc31)[C@H](O)[C@@H]2O   inhibition     27%
4  CNC(=O)[C@@]12C[C@@H]1[C@@H](n1cnc3c(NC)nc(C#CC4CC4)nc31)[C@H](O)[C@@H]2O   inhibition     15%

###

Test system: Mus musculus
Experiment: Antinociceptive activity in chronic constriction injury neutropathic pain CD-1 mouse model assessed as time for peak protection at 3 umol/kg, po
Assay type: functional
Here, each record is paired with measured Time data.
Result type: Time (h)

> print(dat)
                                    molecule  unit.text  number
 1  CNC(=O)[C@@]12C[C@@H]1[C@@H](n1cnc3c(NC)nc(C#Cc4ccc(CO)cc4)nc31)[C@H](O)[C@@H]2O          h       1
 2  CNC(=O)[C@@]12C[C@@H]1[C@@H](n1cnc3c(NC)nc(C#Cc4cc(C)c(C)o4)nc31)[C@H](O)[C@@H]2O          h       1
 3  CNC(=O)[C@@]12C[C@@H]1[C@@H](n1cnc3c(NC)nc(C#CC4CC4)nc31)[C@H](O)[C@@H]2O          h       1
 4  CNC(=O)[C@@]12C[C@@H]1[C@@H](n1cnc3c(NCc4cccc(Cl)c4)nc(C#Cc4ccc(F)c(F)c4)nc31)[C@H](O)[C@@H]2O          h       1
 5  CNC(=O)[C@@]12C[C@@H]1[C@@H](n1cnc3c(NC)nc(C#Cc4cc[nH]n4)nc31)[C@H](O)[C@@H]2O          h     0.5
 6  CNC(=O)[C@@]12C[C@@H]1[C@@H](n1cnc3c(NC)nc(C#Cc4ccccc4)nc31)[C@H](O)[C@@H]2O          h     0.5
 7  CNC(=O)[C@@]12C[C@@H]1[C@@H](n1cnc3c(NC)nc(C#Cc4ccc(F)c(F)c4)nc31)[C@H](O)[C@@H]2O          h       1
 8  CNC(=O)[C@@]12C[C@@H]1[C@@H](n1cnc3c(NC)nc(C#Cc4cnccn4)nc31)[C@H](O)[C@@H]2O          h       1
 9  CNC(=O)[C@@]12C[C@@H]1[C@@H](n1cnc3c(NC)nc(C#Cc4cccc(OC)c4)nc31)[C@H](O)[C@@H]2O          h     0.5
10  CNC(=O)[C@@]12C[C@@H]1[C@@H](n1cnc3c(NC)nc(C#Cc4cccs4)nc31)[C@H](O)[C@@H]2O          h       1
11  CNC(=O)[C@@]12C[C@@H]1[C@@H](n1cnc3c(NC)nc(C#Cc4ccc(F)cc4)nc31)[C@H](O)[C@@H]2O          h       1
12  CNC(=O)[C@@]12C[C@@H]1[C@@H](n1cnc3c(NC)nc(C#CC4CCCCC4)nc31)[C@H](O)[C@@H]2O          h       1
13  CNC(=O)[C@@]12C[C@@H]1[C@@H](n1cnc3c(NC)nc(C#Cc4ccc(OC)cc4)nc31)[C@H](O)[C@@H]2O          h     0.5
14  CNC(=O)[C@@]12C[C@@H]1[C@@H](n1cnc3c(NC)nc(C#Cc4ccccn4)nc31)[C@H](O)[C@@H]2O          h     0.5
15  CNC(=O)[C@@]12C[C@@H]1[C@@H](n1cnc3c(NC)nc(C#Cc4cc5ccccc5o4)nc31)[C@H](O)[C@@H]2O          h       1
16  CNC(=O)[C@@]12C[C@@H]1[C@@H](n1cnc3c(NC)nc(C#Cc4ccsc4)nc31)[C@H](O)[C@@H]2O          h     0.5
17  CNC(=O)[C@@]12C[C@@H]1[C@@H](n1cnc3c(NC)nc(C#Cc4ccc(Cl)cc4)nc31)[C@H](O)[C@@H]2O          h     0.5
18  CNC(=O)[C@@]12C[C@@H]1[C@@H](n1cnc3c(NC)nc(C#Cc4cccnn4)nc31)[C@H](O)[C@@H]2O          h     0.5
19  CNC(=O)[C@@]12C[C@@H]1[C@@H](n1cnc3c(NC)nc(C#Cc4ccccc4OC)nc31)[C@H](O)[C@@H]2O          h       1
20  CNC(=O)[C@@]12C[C@@H]1[C@@H](n1cnc3c(NC)nc(C#Cc4nccs4)nc31)[C@H](O)[C@@H]2O          h       1
21  CNC(=O)[C@@]12C[C@@H]1[C@@H](n1cnc3c(NC)nc(C#Cc4cccc(C(F)(F)F)c4)nc31)C(O)C2O (single isomer, unassigned)          h     0.5
22  CNC(=O)[C@@]12C[C@@H]1[C@@H](n1cnc3c(NC)nc(C#Cc4ccc(Cl)s4)nc31)[C@H](O)[C@@H]2O          h     0.5
23  CNC(=O)[C@@]12C[C@@H]1[C@@H](n1cnc3c(NC)nc(C#Cc4ccco4)nc31)[C@H](O)[C@@H]2O          h       1
24  CNC(=O)[C@@]12C[C@@H]1[C@@H](n1cnc3c(NC)nc(C#Cc4cccc(F)c4)nc31)[C@H](O)[C@@H]2O          h       1
25  CNC(=O)[C@@]12C[C@@H]1[C@@H](n1cnc3c(NC)nc(C#Cc4ccncc4)nc31)[C@H](O)[C@@H]2O          h       1
26  CNC(=O)[C@@]12C[C@@H]1[C@@H](n1cnc3c(NC)nc(C#Cc4ccc(-c5ccccc5)cc4)nc31)[C@H](O)[C@@H]2O          h       1
27  CNC(=O)[C@H]1O[C@@H](n2cnc3c(NCc4cccc(I)c4)ncnc32)[C@H](O)[C@@H]1O          h       1

###

Biological target: CYP1A2 (Homo sapiens, UniProt P05177)
Sequence (P05177 whole entry): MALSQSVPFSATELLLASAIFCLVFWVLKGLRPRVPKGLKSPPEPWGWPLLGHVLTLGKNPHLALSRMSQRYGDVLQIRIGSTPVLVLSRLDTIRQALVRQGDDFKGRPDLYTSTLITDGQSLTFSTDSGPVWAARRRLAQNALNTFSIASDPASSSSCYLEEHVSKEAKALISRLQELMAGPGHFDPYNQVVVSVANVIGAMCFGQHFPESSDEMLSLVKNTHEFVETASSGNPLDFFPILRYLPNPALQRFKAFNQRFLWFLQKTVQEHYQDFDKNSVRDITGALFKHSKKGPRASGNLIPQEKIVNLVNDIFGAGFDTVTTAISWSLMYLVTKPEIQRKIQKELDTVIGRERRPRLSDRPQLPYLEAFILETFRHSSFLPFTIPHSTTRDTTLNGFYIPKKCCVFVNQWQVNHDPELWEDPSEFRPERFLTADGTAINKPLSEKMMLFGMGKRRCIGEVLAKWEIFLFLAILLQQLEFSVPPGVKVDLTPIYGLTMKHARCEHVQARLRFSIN
Assay: Inhibition of CYP1A2 in human microsomes preincubated at 10 uM for 5 mins before substrate addition measured after 10 mins by LC/MS/MS analysis
Format: ADME
Result type: inhibition at 10 min, 10 µM (%)

> print(dat)
                                smiles.data                  result.type  number
1  CNC(=O)[C@@]12C[C@@H]1[C@@H](n1cnc3c(NC)nc(C#Cc4ccc(Br)s4)nc31)[C@H](O)[C@@H]2O  inhibition at 10 min, 10 µM      15

###

Target: Adenosine receptor A2a (Homo sapiens)
Experiment: Displacement of [3H]CGS21680 from human recombinant A2A adenosine receptor expressed in HEK293 cells at 10 uM after 60 mins by liquid scintillation counting
Type: cell-based
Result type: inhibition (%)

> print(dat)
                                smiles.data                      target.under.test  unit.text  number
1  CNC(=O)[C@@]12C[C@@H]1[C@@H](n1cnc3c(NC)nc(C#Cc4ccc(OC)cc4)nc31)[C@H](O)[C@@H]2O  Adenosine receptor A2a (Homo sapiens)          %      24
2  CNC(=O)[C@@]12C[C@@H]1[C@@H](n1cnc3c(NC)nc(C#Cc4cccs4)nc31)[C@H](O)[C@@H]2O  Adenosine receptor A2a (Homo sapiens)          %      20
3  CNC(=O)[C@@]12C[C@@H]1[C@@H](n1cnc3c(NC)nc(C#Cc4ccc(Br)s4)nc31)[C@H](O)[C@@H]2O  Adenosine receptor A2a (Homo sapiens)          %      19
4  CNC(=O)[C@@]12C[C@@H]1[C@@H](n1cnc3c(NC)nc(C#Cc4cnccn4)nc31)[C@H](O)[C@@H]2O  Adenosine receptor A2a (Homo sapiens)          %      25
5  CNC(=O)[C@@]12C[C@@H]1[C@@H](n1cnc3c(NC)nc(C#Cc4ccsc4)nc31)[C@H](O)[C@@H]2O  Adenosine receptor A2a (Homo sapiens)          %       3
6  CNC(=O)[C@@]12C[C@@H]1[C@@H](n1cnc3c(NC)nc(C#Cc4cc[nH]n4)nc31)[C@H](O)[C@@H]2O  Adenosine receptor A2a (Homo sapiens)          %      19
7  CNC(=O)[C@@]12C[C@@H]1[C@@H](n1cnc3c(NC)nc(C#Cc4ccncc4)nc31)[C@H](O)[C@@H]2O  Adenosine receptor A2a (Homo sapiens)          %       2
